This section presents IC50 values reported for Serine/threonine-protein kinase PAK 1 (Homo sapiens, UniProt Q13153) in the literature.
Sequence (Q13153 whole entry): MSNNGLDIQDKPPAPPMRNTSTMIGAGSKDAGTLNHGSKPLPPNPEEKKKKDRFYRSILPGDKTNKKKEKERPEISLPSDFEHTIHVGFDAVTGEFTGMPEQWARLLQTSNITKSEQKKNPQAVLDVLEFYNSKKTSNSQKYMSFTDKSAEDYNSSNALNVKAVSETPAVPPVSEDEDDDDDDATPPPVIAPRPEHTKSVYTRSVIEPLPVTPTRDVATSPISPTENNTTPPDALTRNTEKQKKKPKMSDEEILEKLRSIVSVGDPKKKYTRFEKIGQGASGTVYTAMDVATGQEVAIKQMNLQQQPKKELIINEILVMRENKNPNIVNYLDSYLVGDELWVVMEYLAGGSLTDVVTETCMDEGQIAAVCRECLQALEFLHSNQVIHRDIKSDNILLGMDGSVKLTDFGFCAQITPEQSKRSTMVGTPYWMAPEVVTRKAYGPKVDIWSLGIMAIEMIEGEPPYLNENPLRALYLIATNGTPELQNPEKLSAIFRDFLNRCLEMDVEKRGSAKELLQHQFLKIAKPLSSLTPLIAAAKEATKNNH
endpointName: IC50

>>> experimentalresult("CCN(CC)CCc1ccc(Nc2ncc3cc(-c4ccc(-c5cnc(C)s5)cc4Cl)c(=O)n(CC)c3n2)cc1")
"< 50 nM"
>>> experimentalresult("CCn1c(=O)c(-c2ccc(-c3ccnc(C(N)=O)c3)cc2Cl)cc2cnc(Nc3ccc(C4CCN(C)CC4)cc3)nc21")
"50 to 500 nM"
>>> experimentalresult("CCn1c(=O)c(-c2ccc(-c3ccsc3)cc2)cc2cnc(Nc3ccc(N4CCN(C)CC4)cc3)nc21")
"50 to 500 nM"
>>> experimentalresult("CCn1c(=O)c(-c2ccc(-c3cccnc3F)cc2Cl)cc2cnc(Nc3ccc(C4=CCN(C)CC4)cc3)nc21")
"< 50 nM"
>>> experimentalresult("CCn1c(=O)c(-c2ccc(-c3cccnc3)cc2Cl)cc2cnc(Nc3ccc(N4CCN(C)CC4)cc3)nc21")
"< 50 nM"
>>> experimentalresult("CN(C)CCNc1ccc(-c2ccnc(Nc3ccc(N4CCN(C)CC4)cc3)n2)cn1")
"1000 to 10000 nM"
>>> experimentalresult("CNc1ncc2cc(-c3cc(NC(=O)c4cc(S(C)(=O)=O)n(-c5ccc(F)cc5)n4)ccc3Cl)c(=O)n(C)c2n1")
"≥ 10000 nM"
>>> experimentalresult("CCn1c(=O)c(-c2ccc(-c3cc(N(C)C)ncn3)cc2Cl)cc2cnc(Nc3ccc(C4CCN(C)CC4)cc3)nc21")
"< 50 nM"

----------
Record: compiled IC50 on Serine/threonine-protein kinase PAK 1 (Homo sapiens) from multiple reports.
endpointName: IC50

>>> experimentalresult("CCn1c(=O)c(-c2ccc(-c3csc(C)n3)s2)cc2cnc(Nc3ccc(N4CCN(C)CC4)cc3)nc21")
"> 5 µM"
>>> experimentalresult("CN1CCN(c2ccc(Nc3ncc4ccc(=O)n(CCc5ccccc5C(F)(F)F)c4n3)cc2)CC1")
"< 1 µM"
>>> experimentalresult("CCn1c(=O)c(-c2ccc(-c3ccc(C)nc3F)cc2Cl)cc2cnc(Nc3ccc(C4CCN(C(C)C)CC4)cc3)nc21")
"0.05 to 0.5 µM"
>>> experimentalresult("CCn1c(=O)c(-c2sc(C)nc2C)cc2cnc(Nc3ccc(N4CCN(C)CC4)cc3)nc21")
"> 5 µM"
>>> experimentalresult("CCn1c(=O)c(-c2ccc(-c3ccc(C)nc3)cc2Cl)cc2cnc(Nc3ccc(C4CCN5CCCC5C4)cc3)nc21 (stereo not drawn)")
"< 0.05 µM"
>>> experimentalresult("CCn1c(=O)c(-c2ccc(-c3cncs3)cc2Cl)cc2cnc(Nc3ccc(N4CCN(C)CC4)c(F)c3)nc21")
"< 0.05 µM"
>>> experimentalresult("CCn1c(=O)c(-c2ccc(-c3noc(C)n3)nc2)cc2cnc(Nc3ccc(C4CCN(C)CC4)cc3)nc21")
"0.5 to 5 µM"
>>> experimentalresult("Cc1ncccc1-c1ccc(-c2cc3cnc(Nc4ccc(CCN(C)C)cc4)nc3n(C)c2=O)c(Cl)c1")
"< 0.05 µM"
>>> experimentalresult("CCN1CCC(c2ccc(Nc3ncc4cc(-c5ccc(-c6noc(C)n6)cc5Cl)c(=O)n(CC)c4n3)cc2F)CC1")
"< 0.05 µM"
>>> experimentalresult("CCN1CCC(c2ccc(Nc3ncc4cc(-c5ccc(-c6cnc(C)s6)cc5Cl)c(=O)n(CC)c4n3)cc2)CC1")
"< 0.05 µM"
>>> experimentalresult("CCn1c(=O)c(-c2ccc(-c3nnn[nH]3)s2)cc2cnc(Nc3ccc(N4CCN(C)CC4)cc3)nc21")
"> 5 µM"
>>> experimentalresult("CCn1c(=O)c(-c2ccc(-c3ccc(C)nc3F)cc2Cl)cc2cnc(Nc3ccc(CCN(C)C)cc3)nc21")
"< 0.05 µM"
>>> experimentalresult("CCNc1ncc2c(n1)N1CCN=C1C(c1ccc(-n3ccnc(C)c3=O)cc1Cl)=C2")
"0.1 to 10 µM"
>>> experimentalresult("CCn1c(=O)c(-c2ccc(-c3ccc(F)nc3C)cc2Cl)cc2cnc(Nc3ccc(C4CCNCC4)c(F)c3)nc21")
"0.05 to 0.5 µM"
>>> experimentalresult("C1=C(c2ccccn2)C2=NCCN2c2nc(Nc3ccncc3)ncc21")
"> 10 µM"
>>> experimentalresult("Cn1nccc1Nc1ncc2c(n1)N1CCN=C1C(c1ccccc1Cl)=C2")
"> 10 µM"
>>> experimentalresult("CCn1c(=O)c(-c2ccc(-c3cscn3)cc2Cl)cc2cnc(Nc3ccc(N4CCN(C)CC4)cc3)nc21")
"< 0.05 µM"
>>> experimentalresult("CCn1c(=O)c(-c2ccc(-c3ccnc(C(F)(F)F)n3)cc2Cl)cc2cnc(Nc3ccc(C4CCN(C)CC4)cc3)nc21")
"< 0.05 µM"
>>> experimentalresult("CCn1c(=O)c(-c2nc(C3CCNCC3)sc2C)cc2cnc(Nc3ccc(N4CCN(C)CC4)cc3)nc21")
"0.5 to 5 µM"
>>> experimentalresult("CCn1c(=O)c(-c2ccc(-c3ccc(C)nc3)cc2Cl)cc2cnc(Nc3ccc(C4CCNCC4)cc3)nc21")
"< 0.05 µM"
>>> experimentalresult("CNc1ncc2c(n1)N1CCCN=C1C(c1ccc(-n3ccnc(C)c3=O)cc1Cl)=C2")
"> 10 µM"
>>> experimentalresult("CN1CCN(c2ccc(Nc3ncc4ccc(=O)n(Cc5ccccc5N5CCOCC5)c4n3)cc2)CC1")
"< 1 µM"
>>> experimentalresult("CCn1c(=O)c(-c2ccc(-c3cccnc3)cc2Cl)cc2cnc(Nc3ccc(N4CCNCC4)cc3)nc21")
"< 0.05 µM"
>>> experimentalresult("CCN1CCC(c2ccc(Nc3ncc4cc(-c5ccc(-c6ccnc(C(=O)NC)c6)cc5Cl)c(=O)n(CC)c4n3)cc2)CC1")
"0.05 to 0.5 µM"
>>> experimentalresult("CCN1CCC(c2ccc(Nc3ncc4cc(-c5ccc(-c6cccnc6F)cc5Cl)c(=O)n(CC)c4n3)cc2)CC1")
"< 0.05 µM"
>>> experimentalresult("CCn1c(=O)c(-c2ccc(-c3cncnc3)cc2Cl)cc2cnc(Nc3ccc(N4CCN(C)CC4)cc3)nc21")
"< 0.05 µM"
>>> experimentalresult("Fc1ccccc1Nc1ncc2c(n1)N1CCN=C1C(c1ccc(Cl)cc1Cl)=C2")
"> 10 µM"
>>> experimentalresult("CN1CCN(c2ccc(Nc3nccc(-c4ccc(NCCCN)nc4)n3)cc2)CC1")
"< 1 µM"
>>> experimentalresult("Cc1nc(-c2ccc(Cl)c(-c3cc4cnc(Nc5ccc(C6CCN(C)CC6)cc5)nc4n(C)c3=O)c2)no1")
"0.5 to 5 µM"
>>> experimentalresult("CCN(CC)CCc1ccc(Nc2ncc3cc(-c4ccc(-c5cccnc5F)cc4Cl)c(=O)n(CC)c3n2)cc1")
"< 0.05 µM"
>>> experimentalresult("CCn1c(=O)c(-c2ccc(-c3cnc(C)s3)cc2Cl)cc2cnc(Nc3ccc(C4=CCNCC4)cc3)nc21")
"< 0.05 µM"
>>> experimentalresult("CCn1c(=O)c(-c2ccc(-c3cccnc3C)cc2Cl)cc2cnc(Nc3ccc(C4CCN(C)CC4)c(F)c3)nc21")
"< 0.05 µM"
>>> experimentalresult("NS(=O)(=O)c1cccc2c1C(=O)c1cccc(O)c1C2=O")
"> 100 µM"
